- Target desc: EcRecQ catalytic core D312A (Escherichia coli, UniProt P15043 1-523, D312A)
- Method summary: fluorescence anisotropy; apparent Kd; 1 mM Mg2+; 20 mM Tris-HCl pH 8.0, 100 mM NaCl, 1 mM MgCl2, 1 mM 2-mercaptoethanol, 0.1 mg/mL BSA, 4% glycerol; 5 nM DNA, 30 min at room temperature, read at 25 C (G4 folded in 10 mM Tris-HCl pH 8.0, 100 mM KCl)
- Condition parameters: protein: recombinant; tags: N-terminal His tag removed (thrombin); label: 3' FAM; intramolecular G4 (folded in 100 mM KCl) with 12 nt 3' ssDNA tail

Binder	Kd
TTAGGGTTAGGGTTAGGGTTAGGGTCGGTGCCTTACT (structured_DNA) [F-G4]	330 nM
